observable: melting point

Examples with answers:
COc1cc(C[C@@H]2CN(Cc3cccnc3)CCN2C(=O)c2cc(C(F)(F)F)cc(C(F)(F)F)c2)ccc1F.Cl.Cl : 143 to 147 °C
Cc1ccc(C[C@@H]2CN(CCN3[C@H](C)COC[C@@H]3C)CCN2C(=O)c2cc(C(F)(F)F)cc(C(F)(F)F)c2)cc1O.Cl.Cl : 210 to 220 °C
COC[C@@H]1CN(CCN2CCN(C(=O)c3cc(C(F)(F)F)cc(C(F)(F)F)c3)[C@H](Cc3ccc(C(F)(F)F)cc3)C2)[C@@H](C)CO1.Cl.Cl : 142 to 182 °C
COc1cc(C(=O)N2CCN(CCN3C[C@@H](C)O[C@@H](C)C3)C[C@H]2Cc2ccc3ccccc3c2)cc(C(F)(F)F)c1.Cl.Cl : 188 to 193 °C
COC[C@@H]1CN(CCN2CCN(C(=O)c3cc(C(F)(F)F)cc(C(F)(F)F)c3)[C@H](Cc3ccc(C)c(N4CCOCC4)c3)C2)CCO1.Cl.Cl.Cl : 150 to 170 °C

# melting point (compound: COC[C@@H]1CN(CCN2CCN(C(=O)c3cc(OC)cc(C(F)(F)F)c3)[C@H](Cc3ccc4ccccc4c3)C2)CCO1.Cl.Cl ) is 134 to 140 °C

# melting point (compound: COC[C@@H]1CN(CCN2CCN(C(=O)c3cc(OC)cc(C(F)(F)F)c3)[C@H](Cc3ccc(Cl)c(O)c3)C2)CCO1.Cl.Cl ) is 160 to 168 °C

* * *

melting point: recorded values

# melting point (molecule: C[C@@H]1CN(CCN2CCN(C(=O)c3cc(C(F)(F)F)cc(C(F)(F)F)c3)[C@H](Cc3ccc(Cl)c(O)c3)C2)C[C@H](C)O1.Cl.Cl ) is 172 to 175 °C

* * *

observable: melting point

Examples with answers:
COc1cc(C(=O)N2CCN(CC#CCN3CCOCC3(C)C)C[C@H]2Cc2ccc(F)cc2)cc(C(F)(F)F)c1.Cl.Cl : 137.5 to 140.7 °C
CSc1cc(C(=O)N2CCN(CCN3C[C@@H](C)O[C@@H](C)C3)C[C@H]2Cc2ccc(Cl)c(O)c2)cc(C(F)(F)F)c1.Cl.Cl : 162 to 178 °C
COC[C@@H]1CN(CCN2CCN(C(=O)c3cc(C(F)(F)F)cc(C(F)(F)F)c3)[C@H](Cc3ccc(F)c(OC)c3)C2)[C@@H](C)CO1.Cl.Cl : 140 to 164 °C
C[C@@H]1CN(CCN2CCN(C(=O)c3cc([N+](=O)[O-])cc(C(F)(F)F)c3)[C@H](Cc3ccc(Cl)cc3)C2)C[C@H](C)O1.Cl.Cl : 133.3 to 136.2 °C

# melting point (compound: COC[C@H]1CN(CCN2CCN(C(=O)c3cc(C(F)(F)F)cc(C(F)(F)F)c3)[C@H](Cc3ccc(C(F)(F)F)cc3)C2)CCO1.Cl.Cl ) is 188 to 194 °C

# melting point (compound: COc1cc(C[C@@H]2CN(CC#CCN3CCOCC3(C)C)CCN2C(=O)c2cc(C(F)(F)F)cc(C(F)(F)F)c2)ccc1F.Cl.Cl ) is 125 to 130 °C

# melting point (compound: Cc1ccc(CC2CN(CCCc3cccnc3)CCN2C(=O)c2cc(C(F)(F)F)cc(C(F)(F)F)c2)cc1O.Cl.Cl (stereo not shown) [Example 8] ) is 60 to 70 °C

* * *

melting point: recorded values

Cl.Cl.O=C(c1cc(C(F)(F)F)cc(C(F)(F)F)c1)N1CCN(CCN2CC3CCC(C2)O3)C[C@H]1Cc1ccc(C(F)(F)F)cc1 : 232 to 250 °C

# melting point (compound: COC[C@@H]1C[C@@H](OC)CN1CCN1CCN(C(=O)c2cc(C(F)(F)F)cc(C(F)(F)F)c2)[C@H](Cc2ccc(C(F)(F)F)cc2)C1.Cl.Cl ) is 56.59 °C

# melting point (compound: Cc1ccc(CC2CN(CC#Cc3cccnc3)CCN2C(=O)c2cc(C(F)(F)F)cc(C(F)(F)F)c2)cc1O.Cl.Cl (stereo not shown) [Example 7] ) is 180 to 190 °C

# melting point (compound: COc1cc(C[C@@H]2CN(CCN3CCc4ncccc4C3)CCN2C(=O)c2cc(SC)cc(C(F)(F)F)c2)ccc1F.Cl.Cl.Cl ) is 143.3 to 147.5 °C

* * *

melting point: recorded values

COc1cc(C(=O)N2CCN(Cc3cccnc3)C[C@H]2Cc2ccc3ccccc3c2)cc(C(F)(F)F)c1.Cl.Cl : 162 to 168 °C

# melting point (compound: COC[C@@H]1CN(CCN2CCN(C(=O)c3cc(OC)cc(C(F)(F)F)c3)[C@H](Cc3ccc(Cl)cc3)C2)CCO1.Cl.Cl ) is 70 to 90 °C

# melting point (compound: COC[C@@H]1CN(CCN2CCN(C(=O)c3cc(C(F)(F)F)cc(S(=O)(=O)N(C)C)c3)[C@H](Cc3ccc(C)c(O)c3)C2)CCO1.Cl.Cl ) is 153.5 to 160 °C

# melting point (compound: Cl.Cl.Cl.O=C(c1cc(C(F)(F)F)cc(C(F)(F)F)c1)N1CCN(CCN2CCc3ncccc3C2)C[C@H]1Cc1ccc(F)c(O)c1 ) is 240 to 241 °C

# melting point (compound: COC[C@@H]1CN(CCN2CCN(C(=O)c3cc(C(F)(F)F)cc(C(F)(F)F)c3)[C@H](Cc3ccc(Cl)c(OC)c3)C2)CCO1.Cl.Cl ) is 145 to 149 °C

# melting point (compound: O=C(c1cc(C(F)(F)F)cc(C(F)(F)F)c1)N1CCN(CC#Cc2cccnc2)C[C@H]1Cc1ccc(C(F)(F)F)cc1 ) is 142 to 143 °C

# melting point (compound: COc1cc(C(=O)N2CCN(CCN3CCC(F)(F)CC3)C[C@H]2Cc2c[nH]c3ccccc23)cc(C(F)(F)F)c1.Cl.Cl ) is 130 to 140 °C

* * *

observable: melting point

Examples with answers:
COc1cc(C[C@@H]2CN(CCCc3cccnc3)CCN2C(=O)c2cc(C(F)(F)F)cc(C(F)(F)F)c2)ccc1F.Cl.Cl : 125 to 130 °C
Cl.Cn1cc(CN2CCN(C(=O)c3cc(C(F)(F)F)cc(C(F)(F)F)c3)[C@H](Cc3ccc(F)cc3)C2)cn1 : 143.3 to 146.4 °C
COc1cc(C(=O)N2CCN(CCN3CCc4ncccc4C3)C[C@H]2Cc2ccc(Cl)cc2)cc(C(F)(F)F)c1.Cl.Cl.Cl : 140 to 170 °C
COC[C@@H]1C[C@H](COC)CN(CCN2CCN(C(=O)c3cc(C(F)(F)F)cc(C(F)(F)F)c3)[C@H](Cc3ccc(F)c(OC)c3)C2)C1.Cl.Cl : 150 to 156 °C
Cc1ccc(CC2CN(CCN3C[C@@H](C)O[C@@H](C)C3)CCN2C(=O)c2cc(C(F)(F)F)cc(C(F)(F)F)c2)cc1O.Cl.Cl (relative stereo) : 188 to 200 °C

# melting point (compound: CC1(C)COCCN1CC#CCN1CCN(C(=O)c2cc(C(F)(F)F)cc(C(F)(F)F)c2)[C@H](Cc2ccc(Cl)cc2)C1.Cl.Cl ) is 120 to 150 °C

# melting point (compound: Cl.Cl.O=C(c1cc(C(F)(F)F)cc(C(F)(F)F)c1)N1CCN(Cc2cccnc2)C[C@H]1Cc1ccc(Cl)c(O)c1 ) is 187 to 192 °C

* * *

observable: melting point

Examples with answers:
C[C@@H]1CN(CCN2CCN(C(=O)c3cc(C(F)(F)F)cc(S(=O)(=O)N(C)C)c3)[C@H](Cc3ccc(Cl)cc3)C2)C[C@H](C)O1.Cl.Cl : 209.6 to 213.7 °C
C[C@@H]1CN(CCN2CCN(C(=O)c3cc(F)cc(C(F)(F)F)c3)[C@H](Cc3ccc(Cl)cc3)C2)C[C@H](C)O1.Cl.Cl : 80.1 to 82.5 °C
CC1(C)CN(CCN2CCN(C(=O)c3cc(C(F)(F)F)cc(C(F)(F)F)c3)[C@H](Cc3ccc(C(F)(F)F)cc3)C2)CCO1.Cl.Cl : 215 to 231 °C

Attention now shifts to the item below.
# melting point (compound: COC[C@@H]1CN(CCN2CCN(C(=O)c3cc(SC)cc(C(F)(F)F)c3)[C@H](Cc3ccc(C(F)(F)F)cc3)C2)CCO1.Cl.Cl ) is 153 to 170 °C

* * *

melting point: recorded values

Examples with answers:
COC[C@@H]1CN(CCN2CCN(C(=O)c3cc(C(F)(F)F)cc(S(=O)(=O)N4CCCC4)c3)[C@H](Cc3ccc(C)c(O)c3)C2)CCO1.Cl.Cl : 125 to 177 °C
Cl.Cl.O=C(c1cc(C(F)(F)F)cc(C(F)(F)F)c1)N1CCN(CCCc2cccnc2)C[C@H]1Cc1ccc(F)c(F)c1 : 215 to 220 °C
CO[C@H]1CN(CCN2CCN(C(=O)c3cc(C(F)(F)F)cc(C(F)(F)F)c3)[C@H](Cc3ccc(C(F)(F)F)cc3)C2)C[C@@H]1OC.Cl.Cl : 203 to 208 °C
Cl.Cl.O=C(c1cc(C(F)(F)F)cc(C(F)(F)F)c1)N1CCN(CCCc2cccnc2)C[C@H]1Cc1ccc(Cl)c(O)c1 : 65 to 70 °C
Cl.Cl.O=C(c1cc(C(F)(F)F)cc(C(F)(F)F)c1)N1CCN(CCN2CCC(F)(F)CC2)C[C@H]1Cc1ccc(Cl)cc1 : 250 to 255 °C
C[C@@H]1CN(CCN2CCN(C(=O)c3cc(C(F)(F)F)cc(C(F)(F)F)c3)[C@H](Cc3ccc(F)c(F)c3)C2)C[C@H](C)O1.Cl.Cl : 223 to 228 °C
COC[C@@H]1CN(CCN2CCN(C(=O)c3cc(C(F)(F)F)cc(C(F)(F)F)c3)[C@H](Cc3ccc(F)c(F)c3)C2)CCO1.Cl.Cl : 196 to 198 °C
COC[C@@H]1CN(CCN2CCN(C(=O)c3cc(C)cc(C(F)(F)F)c3)[C@H](Cc3ccc(Cl)cc3)C2)CCO1.Cl.Cl : 148 to 151 °C

Attention now shifts to the item below.
# melting point (molecule: COC[C@@H]1CN(CCN2CCN(C(=O)c3cc(SC)cc(C(F)(F)F)c3)[C@H](Cc3ccc(Cl)c(O)c3)C2)CCO1.Cl.Cl ) is 169 to 174 °C
